Ref: patent US20100017370A1

- Tested on: helper T cells in human PBMCs
- test-details: ex vivo T cell proliferation assay of peptides with CD8+ / CD25hi depleted PBMC
- Type: cell-based
- assay-context: mean stimulation index for responding donors, 50 donors tested
measured-endpoint: Mean SI

IQHESASLR [test peptide]    2.6 ± 0.1
FQHTSILLI [test peptide]    3.8 ± 0.7
ILWEWASYR    2.6 ± 0.6
FLLTRILTI    3.9 ± 1.6
FQHESGPLG [test peptide]    2.8 ± 0.7
LQHWSYPLT    6.3 ± 1.3
FKGEQGPKG    3.5 ± 0.7
LSCAAGGRA    2.3 ± 0.5
LQHASGGLA [test peptide]    2.2 ± 0.2
